# Run conditions: 333.15 K; 10000 kPa; Liquid; Vibrating tube method
± gives the expanded uncertainty stated by the source.
# mass density annotations

(Q) Query (compound): CCCCCCC(=O)OC [methyl heptanoate] ; field requested: mass density
(A) 852.16 ± 0.89 kg/m3

(Q) Would you mind doing CCCCCCCCC(=O)OC [methyl nonanoate] as well?
(A) 848.44 ± 0.89 kg/m3

(Q) Would you mind doing CCCCCC(=O)OC [methyl hexanoate] as well?
(A) 855.15 ± 0.9 kg/m3

(Q) Would you mind doing CCCCCCCC(=O)OC [methyl octanoate] as well?
(A) 850.11 ± 0.89 kg/m3

(Q) Would you mind doing CCCC(=O)OC [methyl butanoate] as well?
(A) 864.28 ± 0.9 kg/m3

(Q) Would you mind doing CCCCC(=O)OC [methyl pentanoate] as well?
(A) 858.86 ± 0.9 kg/m3

---

# Run conditions: 353.15 K; 25000 kPa; Liquid; Vibrating tube method
# mass density annotations
Output spec: scalar in kg/m3, unitless text.

Answered cases to consult:
(Q) Query (compound): CCCCCC(=O)OC [methyl hexanoate] ; field requested: mass density
(A) 851.08

(Q) Would you mind doing CCCCCCC(=O)OC [methyl heptanoate] as well?
(A) 848.48

(Q) Would you mind doing CCCCC(=O)OC [methyl pentanoate] as well?
(A) 854.79

(Q) Would you mind doing CCCC(=O)OC [methyl butanoate] as well?
(A) 859.51

(Q) Would you mind doing CCCCCCCC(=O)OC [methyl octanoate] as well?
(A) 846.49

Continuing:
(Q) Query (compound): CCCCCCCCC(=O)OC [methyl nonanoate] ; field requested: mass density
(A) 844.86

---

# mass density annotations
# Run conditions: 363.15 K; 1000 kPa; Liquid; Vibrating tube method
Numbers after ± are expanded uncertainties.

(Q) Query (compound): CCCCCCCC(=O)OC [methyl octanoate] ; field requested: mass density
(A) 815.91 ± 0.85 kg/m3

Continuing:
(Q) Query (compound): CCCCC(=O)OC [methyl pentanoate] ; field requested: mass density
(A) 817.89 ± 0.85 kg/m3

(Q) Would you mind doing CCCCCC(=O)OC [methyl hexanoate] as well?
(A) 816.87 ± 0.85 kg/m3

(Q) Would you mind doing CCCC(=O)OC [methyl butanoate] as well?
(A) 818.87 ± 0.85 kg/m3

(Q) Would you mind doing CCCCCCCCC(=O)OC [methyl nonanoate] as well?
(A) 815.28 ± 0.85 kg/m3

(Q) Would you mind doing CCCCCCC(=O)OC [methyl heptanoate] as well?
(A) 816.36 ± 0.85 kg/m3

---

# mass density annotations
# Run conditions: 313.15 K; 60000 kPa; Liquid; Vibrating tube method
Output spec: scalar in kg/m3, unitless text.

Answered cases to consult:
(Q) Query (compound): CCCCCCCC(=O)OC [methyl octanoate] ; field requested: mass density
(A) 898.5

(Q) Would you mind doing CCCCC(=O)OC [methyl pentanoate] as well?
(A) 914.32

(Q) Would you mind doing CCCC(=O)OC [methyl butanoate] as well?
(A) 923.73

Continuing:
(Q) Query (compound): CCCCCCC(=O)OC [methyl heptanoate] ; field requested: mass density
(A) 902.59

(Q) Would you mind doing CCCCCC(=O)OC [methyl hexanoate] as well?
(A) 907.83

(Q) Would you mind doing CCCCCCCCC(=O)OC [methyl nonanoate] as well?
(A) 895.33
